From: ChEMBL document CHEMBL5344418

tested on: Plasmodium falciparum; experiment: Antiplasmodial activity against Plasmodium falciparum 3D7 assessed as growth inhibition measured after 72 hrs by SYBR green dye based assay; assay type: functional, organism-based; settings: 3D7, 72 h
Reported endpoint: log10 of IC50 (log10 of the value in nM)

Compound	log10 of IC50
CCC(C)C(CN1CCN(CC)CC1)Nc1ccnc2cc(Cl)ccc12 (stereo not given)	2.06
O=C(c1ccco1)N1CCN(CCNc2ccnc3cc(Cl)ccc23)CC1	3.00
Clc1ccc2c(NC(CN3CCN(Cc4ccccc4)CC3)n3ccc4ccccc43)ccnc2c1 (stereo not given)	2.78
Clc1ccc2c(NC(Cc3ccccc3)CN3CCN(Cc4ccc5c(c4)OCO5)CC3)ccnc2c1 (stereo not given)	2.88
CC(C)CC(CN1CCN(c2ccccc2)CC1)Nc1ccnc2cc(Cl)ccc12 (stereo not given)	2.72
CSCCC(CN1CCN(Cc2ccccc2)CC1)Nc1ccnc2cc(Cl)ccc12 (stereo not given)	3.49
CCN1CCN(CC(Cc2ccccc2)Nc2ccnc3cc(Cl)ccc23)CC1 (stereo not given)	2.63

###

The reader will find reported pIC50 values listed item by item below.
system: Plasmodium falciparum; assay: Antiplasmodial activity against Plasmodium falciparum 3D7 assessed as growth inhibition measured after 72 hrs by SYBR green dye based assay; assay type: functional, organism-based; conditions: 3D7, 72 h
pIC50: −log10 of the molar value.
Reported endpoint: pIC50

Molecule	Observed measurement
Clc1ccc2c(NC(Cc3ccccc3)CN3CCN(Cc4ccccc4)CC3)ccnc2c1 (stereo not drawn)	< 5.30
Clc1ccc2c(NC(Cc3ccccc3)CN3CCN(c4ccccc4)CC3)ccnc2c1 (stereo not drawn)	< 6.00
CSCCC(CN1CCN(c2ccccc2)CC1)Nc1ccnc2cc(Cl)ccc12 (stereo not drawn)	< 5.30
